This collection of values is drawn from ChEMBL document CHEMBL1136700.

Measured MIC of individual entries
Test system: Aspergillus fumigatus
Assay: Minimum inhibitory concentration (MIC) to Aspergillus fumigatus after 48 hr
Format: functional
Conditions: Aspergillus fumigatus, 48 h; read-out: MIC

# input Which measured MIC value corresponds to C=C(Cl)CN1C[C@H](OCC23C[C@@H]4[C@H](C)CC[C@H]4C4(C=O)CC2C=C(C(C)C)[C@@]34C(=O)O)OCC12CCCC2 ?
# output 8 µg/mL

# input Which MIC is listed for C=C(C)CN1C[C@H](OCC23C[C@@H]4[C@H](C)CC[C@H]4C4(C=O)CC2C=C(C(C)C)[C@@]34C(=O)O)OC[C@H]1C ?
# output > 128 µg/mL

# input Reported MIC for C=C(Cl)CN1C[C@H](OCC23C[C@@H]4[C@H](C)CC[C@H]4C4(C=O)CC2C=C(C(C)C)[C@@]34C(=O)O)OC[C@H]1C(C)C : what is it?
# output 32 µg/mL
